molecular target: KLF10 (Homo sapiens); test: KLF10 CACCC-luciferase reporter assay in transfected HeLa cells; type: cell-based; design: host or cells: HeLa; conditions: non-linear regression of dose-response, FIG. 2A-2C; read-out: IC50 on KLF10 transcriptional activity
observation.type: IC50 (µM)
One number for each entry, in µM.

Q) Consider the compound shown here: "Cc1ccc(OCC(=O)c2cc(C)c(O)cc2O)cc1" What is its recorded IC50?
A) 112

====

target: KLF10 (Homo sapiens, UniProt Q13118); experiment: KLF10 CACCC-luciferase reporter assay in transfected HeLa cells; format: cell-based; parameters: host or cells: HeLa; settings: KLF10 reporter activity, Table 2; read-out: IC50
Sequence (Q13118 whole entry): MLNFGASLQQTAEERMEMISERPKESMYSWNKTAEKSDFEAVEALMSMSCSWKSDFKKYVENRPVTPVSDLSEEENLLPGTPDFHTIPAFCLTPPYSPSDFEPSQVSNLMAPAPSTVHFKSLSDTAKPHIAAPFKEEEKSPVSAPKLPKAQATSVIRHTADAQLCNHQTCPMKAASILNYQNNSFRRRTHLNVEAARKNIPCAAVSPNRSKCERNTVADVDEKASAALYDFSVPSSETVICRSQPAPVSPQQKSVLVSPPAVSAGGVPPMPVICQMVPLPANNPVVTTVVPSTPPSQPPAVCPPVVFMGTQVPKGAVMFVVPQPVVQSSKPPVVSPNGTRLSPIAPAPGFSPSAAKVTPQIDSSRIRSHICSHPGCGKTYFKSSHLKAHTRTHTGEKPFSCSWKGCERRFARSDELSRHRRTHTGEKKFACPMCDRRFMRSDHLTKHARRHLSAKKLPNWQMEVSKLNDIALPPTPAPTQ
observation.type: IC50 (µM)
Numbers only, in µM.

Q) Consider the compound shown here: "Cc1ccc(OCC(=O)c2cc(C)c(O)cc2O)cc1" What is its recorded IC50?
A) 112
